Target: KIF2C (Homo sapiens)
Construct: KIF2C (216-598 a.a.); 6xHis (C)
Sequence (Q99661 216-598): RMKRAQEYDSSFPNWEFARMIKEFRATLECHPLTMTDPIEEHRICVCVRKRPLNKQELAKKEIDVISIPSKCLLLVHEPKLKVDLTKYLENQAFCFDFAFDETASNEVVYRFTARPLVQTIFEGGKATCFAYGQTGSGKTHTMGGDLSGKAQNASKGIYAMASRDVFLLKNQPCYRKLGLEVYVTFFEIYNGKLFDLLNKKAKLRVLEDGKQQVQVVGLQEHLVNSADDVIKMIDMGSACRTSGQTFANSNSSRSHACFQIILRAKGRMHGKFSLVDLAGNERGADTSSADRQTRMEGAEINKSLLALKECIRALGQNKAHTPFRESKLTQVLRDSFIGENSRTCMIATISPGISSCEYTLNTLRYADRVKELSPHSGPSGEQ
Assay: In vitro validation: KIF2C kinesin activity, malachite green-based phosphate colorimetric assay
Settings: concentration that inhibits 50% of KIF2C activity
pEC50: −log10 of the molar value.
Overview of reported pEC50 across a group of compounds:

Here are 4 compounds together with their reported answers.
compound	readoutKind	testResult
CC1=C(C(=O)OC(C)C)C(c2ccc(C)cc2)n2c(s/c(=C\c3ccc(OCC(=O)O)cc3)c2=O)=N1 (stereo not drawn) [17S0 (50)]	pEC50	< 4.00
CC1=C(C(=O)O)C(c2ccc(N(C)C)cc2)n2c(s/c(=C\c3ccc(OCC(=O)N4CCN(C)CC4)cc3)c2=O)=N1 (stereo not drawn) [Compound 142]	pEC50	4.00 to 4.30
CC1=C(C(=O)O)C(c2ccc(N(C)C)cc2)n2c(s/c(=C\c3ccc(OCC(=O)N4CCC(N5CCN(C)CC5)CC4)cc3)c2=O)=N1 (stereo not drawn) [Compound 149]	pEC50	> 4.30
CC1=C(C(=O)OC(C)C)C(c2ccc(-n3ccnc3)cc2)n2c(s/c(=C\c3ccc(OCC(=O)O)cc3)c2=O)=N1 (stereo not drawn) [52S0 (45)]	pEC50	< 4.00

I am curious: what pEC50 value has been reported for CCN1CCN(C(=O)COc2ccc(/C=c3\sc4n(c3=O)C(c3ccc(N(C)C)cc3)C(C(=O)O)=C(C)N=4)cc2)CC1 (stereo not drawn) [Compound 145] ? > 4.30

I am curious: what pEC50 value has been reported for CC1=C(C(=O)OC(C)(C)C)C(c2ccc(Cl)cc2)n2c(s/c(=C\c3ccc(OCC(=O)N4CCN(C)CC4)cc3)c2=O)=N1 (stereo not drawn) [25S0 (95)] ? < 4.00

Sourced from patent US20250129101A1
